Test system: Viscum album
testDescription: Ratio IC50 for lactose to compound for Viscum album agglutinin binding to biotinylated neoglycoprotein with p-isothiocyanatophynyl lactoside assessed as lectin-neoglycoprotein complex formation after 1 hr by spectrophotometric analysis
I'd appreciate it if you could supply Ratio IC50 values for the items below.
Answers are plain numbers.

{"smilesRepr": "OC[C@@H]1O[C@H](C/C=C/c2cccc(/C=C/C[C@@H]3O[C@H](CO)[C@H](O)[C@H](O)[C@H]3O)c2)[C@@H](O)[C@H](O)[C@@H]1O", "measurementTarget": "Viscum album", "Ratio IC50": 1.9}
{"smilesRepr": "Cc1nc(NC(=O)c2ccccc2)sc1[C@@H]1O[C@H](CO)[C@H](O)[C@H](O)[C@H]1O", "measurementTarget": "Viscum album", "Ratio IC50": 1.2}
{"smilesRepr": "O=C(NCc1cn([C@@H]2O[C@H](CO)[C@H](O[C@@H]3O[C@H](CO)[C@H](O)[C@H](O)[C@H]3O)[C@H](O)[C@H]2O)nn1)c1cc(C(=O)NCc2cn([C@@H]3O[C@H](CO)[C@H](O[C@@H]4O[C@H](CO)[C@H](O)[C@H](O)[C@H]4O)[C@H](O)[C@H]3O)nn2)cc(C(=O)NCc2cn([C@@H]3O[C@H](CO)[C@H](O[C@@H]4O[C@H](CO)[C@H](O)[C@H](O)[C@H]4O)[C@H](O)[C@H]3O)nn2)c1", "measurementTarget": "Viscum album", "Ratio IC50": 6.2}
{"smilesRepr": "Cc1nc(NC(=O)Cc2ccccc2)sc1[C@@H]1O[C@H](CO)[C@H](O)[C@H](O)[C@H]1O", "measurementTarget": "Viscum album", "Ratio IC50": 1.3}

Next compound, please.
Ratio IC50 reading for "O=C(CCSCCC(F)(F)C(F)(F)C(F)(F)C(F)(F)C(F)(F)C(F)(F)C(F)(F)C(F)(F)F)NC(CO[C@@H]1O[C@H](CO)[C@H](O)[C@H](O)[C@H]1O)(CO[C@@H]1O[C@H](CO)[C@H](O)[C@H](O)[C@H]1O)CO[C@@H]1O[C@H](CO)[C@H](O)[C@H](O)[C@H]1O" : 2.2
